# target_under_test: bovine serum albumin (BSA-methylglyoxal glycation) (Bos taurus, UniProt P02769)
# Construct: purchased Merck Marker Pvt; Ltd. (Germany)
# Sequence (P02769 25-607): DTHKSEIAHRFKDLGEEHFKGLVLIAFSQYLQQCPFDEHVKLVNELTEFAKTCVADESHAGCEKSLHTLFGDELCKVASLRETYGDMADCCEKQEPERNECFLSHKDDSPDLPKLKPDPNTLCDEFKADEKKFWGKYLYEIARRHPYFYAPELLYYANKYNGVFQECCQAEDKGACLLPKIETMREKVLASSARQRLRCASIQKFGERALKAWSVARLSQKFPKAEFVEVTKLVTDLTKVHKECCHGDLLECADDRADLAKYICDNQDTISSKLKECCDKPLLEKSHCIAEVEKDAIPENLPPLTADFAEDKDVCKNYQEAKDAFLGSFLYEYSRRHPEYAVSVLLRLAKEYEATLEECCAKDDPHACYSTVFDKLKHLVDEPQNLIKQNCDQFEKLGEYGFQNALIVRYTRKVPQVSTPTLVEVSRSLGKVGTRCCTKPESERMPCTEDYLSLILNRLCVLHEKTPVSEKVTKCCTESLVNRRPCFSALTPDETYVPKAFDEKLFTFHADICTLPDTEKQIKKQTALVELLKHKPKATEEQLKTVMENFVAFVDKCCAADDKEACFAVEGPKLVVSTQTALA
# protocol_details: in vitro BSA-MG glycation model (antiglycation assay)
# Assay type: biochemical
# stated_conditions: Antiglycation Studies IC50 ± SEM, BSA-MG model, 10 mg/mL BSA, 14 mM methylglyoxal, 37° C., 9 days, fluorescence ex 330/em 420 nm
pIC50: −log10 of the molar value.
value_kind: pIC50

See these solved cases before continuing.
O=C(NN=Cc1ccco1)c1cccs1 = 3.28
C(=NNc1ccccn1)c1ccccn1 = 3.40

P. Cc1ccc(C=NNC(=O)c2cccs2)o1
Q. C(=Nc1ccc(Cc2ccc(N=Cc3ccccn3)cc2)cc1)c1ccccn1
Req: Which value of pIC50 is greater, the one for P or the one for Q ? Lab log: write the label of the selected item as the result.
Resp: P
